Experiment: Metabolic stability in human liver microsomes
Assay type: in vitro ADME
Consider the following molecules; for each one, report its Metabolic Stability Study H = human.
Entry rule: numbers only, all in µL/min/mg.

// lookup Metabolic Stability Study H = human for CCN1Cc2ccc(CS(=O)(=O)c3ccc(NC(=O)NC(C)c4ccccc4)cc3)cc2C1 (stereo not shown)
111.2

Entry under review: CC(NC(=O)Nc1ccc(S(=O)(=O)Cc2ccc3c(c2)CNC3)cc1)c1cc(F)cc(F)c1 (stereo not shown) . Reported Metabolic Stability Study H = human?
19.4

Entry CC(NC(=O)Nc1ccc(S(=O)(=O)Cc2ccc3c(c2)CN(C)C3)c(O)c1)c1ccccc1.O=C(O)C(F)(F)F (stereo not shown) has what Metabolic Stability Study H = human?
26.1

What measured Metabolic Stability Study H = human goes with C[C@H](NC(=O)Nc1ccc(S(=O)(=O)Nc2ccc(CC(C)(C)N)cc2)cc1)c1cccc(Cl)c1Cl.Cl ?
10.6

Name the recorded Metabolic Stability Study H = human for COc1ccc([C@H](C)NC(=O)Nc2ccc(S(=O)(=O)Cc3ccc4c(c3)CCN(C(C)=O)C4)cc2)c(Cl)c1Cl .
92.4

Fill in: Metabolic Stability Study H = human of Cc1oc(=O)oc1COC(=O)N1Cc2ccc(CS(=O)(=O)c3ccc(NC(=O)NC(C)c4ccccc4)cc3)cc2C1 (stereo not shown) is ___
268.4

For the molecule shown here, CC(NC(=O)Nc1ccc(S(=O)(=O)Cc2ccc3c(c2)CNC3)cc1F)c1ccccc1F.Cl (stereo not shown) , give the reported Metabolic Stability Study H = human.
21.3

---

Target: GHSR-1a (HEK293/GHSR1a cell line) (Homo sapiens)
Construct: expressed in transfected cells; host or cells: HEK293/GHSR1a cell line
Sequence (Q92847 whole entry): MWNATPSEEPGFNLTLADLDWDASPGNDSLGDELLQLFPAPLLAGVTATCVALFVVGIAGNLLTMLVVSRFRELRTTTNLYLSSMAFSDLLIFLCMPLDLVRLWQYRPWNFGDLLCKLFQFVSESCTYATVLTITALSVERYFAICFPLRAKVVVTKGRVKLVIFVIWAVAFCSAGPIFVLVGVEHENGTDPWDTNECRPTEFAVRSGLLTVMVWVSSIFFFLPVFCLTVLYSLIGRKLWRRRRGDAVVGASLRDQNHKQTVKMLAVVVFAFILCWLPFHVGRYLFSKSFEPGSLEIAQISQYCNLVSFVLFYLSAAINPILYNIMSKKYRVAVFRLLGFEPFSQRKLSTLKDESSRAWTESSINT
Assay: Ghrelin antagonist potency (IC50) with calcium FLIPR assay, ghrelin 10 nM
Type: cell-based
Conditions: ghrelin antagonist potency, read-out: IC50 (Activity)
RESULT TYPE: pIC50
The read-out pIC50 is expressed as -log10 of concentration in moles per litre.

Can you look up the measured pIC50 of COc1ccc([C@H](C)NC(=O)Nc2ccc(S(=O)(=O)Cc3ccc4c(c3)CCN(C(C)=O)C4)cc2)c(Cl)c1Cl for me?
4.67

# lookup: pIC50 of CCOC(=O)N1CCc2cc(CS(=O)(=O)c3ccc(NC(=O)N[C@@H](C)c4cccc(Cl)c4Cl)cc3)ccc2C1
5.35

So what does the record say about pIC50 for O=C(NCc1cccc(Cl)c1Cl)Nc1ccc(S(=O)(=O)Cc2ccc3c(c2)NCC3)cc1 ?
5.70

---

Biological target: GHSR-1a (HEK293/GHSR1a cell line) (Homo sapiens)
Construct: expressed in transfected cells; host or cells: HEK293/GHSR1a cell line
Test: Ghrelin antagonist potency (IC50) with calcium FLIPR assay, ghrelin 10 nM
Type: cell-based
Conditions: ghrelin antagonist potency, read-out: IC50 (Activity)
RESULT TYPE: pIC50
// pIC50 is dimensionless: -log10 of concentration (M)

Name the reported pIC50 value associated with the molecule C[C@H](NC(=O)Nc1ccc(S(=O)(=O)Cc2ccc3c(c2)COC3)cc1)c1cccc(Cl)c1Cl
4.92

Quick one: pIC50 for CC(NC(=O)Nc1ccc(S(=O)(=O)Cc2ccc3c(c2)CN(C)C3)cc1)C1CC1 (centres unmarked) ?
5.89

Which measured pIC50 value corresponds to CN(C)C(C)(C)Cc1ccc(NS(=O)(=O)c2ccc(NC(=O)NCc3cccc(Cl)c3Cl)cc2)cc1 ?
7.49

Query (molecule): CC(C)NC(=O)Nc1ccc(S(=O)(=O)Cc2ccc3c(c2)CNC3)cc1 ; field requested: pIC50
5.31

Can you share its pIC50? I mean this molecule: CC(NC(=O)Nc1ccc(S(=O)(=O)Cc2ccc3c(c2)CN(Cc2ccccc2)C3)cc1)c1ccccc1 (centres unmarked)
8.11

Which pIC50 value belongs to C[C@H](NC(=O)Nc1ccc(S(=O)(=O)Nc2ccc(CC(C)(C)N(C)C)cc2)cc1)c1cccc(Cl)c1Cl ?
7.80

Please look up its pIC50: CCOc1ccc(Cl)c(C(=O)NC(=O)Nc2ccc(S(=O)(=O)Nc3ccc4c(c3)CNC4)cc2)c1
6.36
